The values you see were collected from patent US9617256B2.

The following compounds are shown together with reported MIC values.
System: APAE001 (ATCC27853)
Test: MIC broth microdilution, APAE001
Type: cell-based, P. aeruginosa
Settings: Pseudomonas aeruginosa, ATCC27853, read-out: MIC APAE001, APAE001 is ATCC27853

>>> readout_value("C[C@@H](O)[C@H](NC(=O)c1ccc(C2CCN(c3ccc(CN4CCOCC4)cc3)CC2)cc1)C(=O)NO")
"16 to 64 µg/mL"

Tell me reported MIC for `C[C@@H](N)[C@H](NC(=O)c1ccc(C#C/C=C/c2ccc(CN3CCOCC3)cc2)cc1)C(=O)NO` , tested with APAE001 (ATCC27853).
2 to 16 µg/mL

---

The following compounds are shown together with reported MIC values.
System: AABA1060 (clinical isolate of Acinetobacter baumannii)
Test: MIC broth microdilution, AABA1060
Assay type: cell-based
Conditions: Acinetobacter baumannii, read-out: MIC AABA1060

Tell me reported MIC for CC(C)OCc1ccc(C#Cc2ccc(C(=O)N[C@H](C(=O)NO)[C@@H](C)N)cc2)cc1 [Example 124-2] , tested with AABA1060 (clinical isolate of Acinetobacter baumannii).
2 to 16 µg/mL

Tell me reported MIC for CC(C)(N)[C@H](NC(=O)c1ccc(C#Cc2ccccc2)cc1)C(=O)NO [Example 133-6] , tested with AABA1060 (clinical isolate of Acinetobacter baumannii).
< 2 µg/mL

---

System: ASAU001 (laboratory strain of S. aureus, ATCC29213)
Assay: MIC broth microdilution, ASAU001
Format: cell-based
Details: Staphylococcus aureus, ATCC29213, read-out: MIC ASAU001
Method: Bacterial isolates were cultivated from −70° C. frozen stocks by overnight passages at 35° C. in ambient air on Mueller-Hinton agar (Beckton Dickinson, Franklin Lakes, N.J.). […] Minimum Inhibitory Concentrations (MICs) were determined by the broth microdilution method in accordance with the Clinical and Laboratory Standards Institute (CLSI) guidelines. […]
measured-quantity: MIC

>>> readout_value("C[C@@H](N)[C@H](NC(=O)c1ccc(C#Cc2ccc(CN3CCN(S(C)(=O)=O)CC3)cc2)cc1)C(=O)NO")
"> 64 µg/mL"

For `CC(C)(O)[C@H](NC(=O)c1ccc(C#C/C=C/c2ccc(F)cc2)cc1)C(=O)NO` , what is its reported MIC?
16 to 64 µg/mL

For `Cn1cncc1C#CC#Cc1ccc(C(=O)N[C@H](C(=O)NO)C(C)(C)O)cc1` , what is its reported MIC?
16 to 64 µg/mL

For `C[C@@H](N)[C@H](NC(=O)c1ccc(C#Cc2ccc(CNCCF)cc2)cc1)C(=O)NO` , what is its reported MIC?
16 to 64 µg/mL

For `CC(C)(N)[C@@H](NC(=O)c1ccc(C#CC#CC2CC2)cc1)C(=O)NO` , what is its reported MIC?
16 to 64 µg/mL

For `C[C@@H](N)[C@H](NC(=O)c1ccc(C#CC#Cc2ccc(O)cc2)cc1)C(=O)NO` , what is its reported MIC?
16 to 64 µg/mL

For `C[C@@H](N)[C@H](NC(=O)c1ccc(/C=C/C#Cc2ccc(CN3CCOCC3)cc2)cc1)C(=O)NO` , what is its reported MIC?
> 64 µg/mL

For `CC(C)(N)[C@H](NC(=O)c1ccc(C#CC#CCC2CC2)cc1)C(=O)NO` , what is its reported MIC?
16 to 64 µg/mL

---

Test system: ASAU001 (laboratory strain of S. aureus, ATCC29213)
Experiment: MIC broth microdilution, ASAU001
Type: cell-based
Conditions: Staphylococcus aureus, ATCC29213, read-out: MIC ASAU001
Method: Bacterial isolates were cultivated from −70° C. frozen stocks by overnight passages at 35° C. in ambient air on Mueller-Hinton agar (Beckton Dickinson, Franklin Lakes, N.J.). […] Minimum Inhibitory Concentrations (MICs) were determined by the broth microdilution method in accordance with the Clinical and Laboratory Standards Institute (CLSI) guidelines. […]
measured-quantity: MIC

Reference set (5 entries):
>>> readout_value("C[C@@H](N)[C@H](NC(=O)c1ccc(C#CC#Cc2ccccc2F)cc1)C(=O)NO")
"2 to 16 µg/mL"
>>> readout_value("O=C(N[C@@H](Cn1cncn1)C(=O)NO)c1ccc(/C=C/C#Cc2ccc(CN3CCOCC3)cc2)cc1")
"16 to 64 µg/mL"
>>> readout_value("CC(C)(O)[C@H](NC(=O)c1ccc(C#CC#CCC2CCCC2)cc1)C(=O)NO")
"16 to 64 µg/mL"
>>> readout_value("C[C@@H](N)[C@H](NC(=O)c1ccc(C#CC#Cc2ccc(OC(F)(F)F)cc2)cc1)C(=O)NO")
"16 to 64 µg/mL"
>>> readout_value("C[C@@H](N)[C@H](NC(=O)c1ccc(C#CC#CCCCO)cc1)C(=O)NO")
"16 to 64 µg/mL"

Tell me reported MIC for `C[C@@H](O)[C@H](NC(=O)c1ccc(N2CCC(c3ccc(CN4CCOCC4)cc3)CC2)cc1)C(=O)NO` , tested with ASAU001 (laboratory strain of S. aureus, ATCC29213).
> 64 µg/mL

Tell me reported MIC for `CC(C)(O)[C@H](NC(=O)c1ccc(/C=C/C#Cc2ccc(CN3CCOCC3)cc2)cc1)C(=O)NO` , tested with ASAU001 (laboratory strain of S. aureus, ATCC29213).
> 64 µg/mL

Tell me reported MIC for `Cn1cc(C#CC#Cc2ccc(C(=O)N[C@H](C(=O)NO)C(C)(C)N)cc2)cn1` , tested with ASAU001 (laboratory strain of S. aureus, ATCC29213).
16 to 64 µg/mL

---

Test system: APAE001 (ATCC27853)
Test: MIC broth microdilution, APAE001
Type: cell-based, P. aeruginosa
Details: Pseudomonas aeruginosa, ATCC27853, read-out: MIC APAE001, APAE001 is ATCC27853
measured-quantity: MIC

For `O=C(NO)[C@@H]1CCCN1S(=O)(=O)c1ccc(C#Cc2ccc(CN3CCOCC3)cc2)cc1` , what is its reported MIC?
> 64 µg/mL

For `C[C@@H](O)[C@H](NC(=O)c1ccc(C=C(F)C#Cc2ccc(CN3CCOCC3)cc2)cc1)C(=O)NO` , what is its reported MIC?
2 to 16 µg/mL

For `CN(C)CC(=O)NC[C@H](NC(=O)c1ccc(/C=C/C#Cc2ccc(CN3CCOCC3)cc2)cc1)C(=O)NO` , what is its reported MIC?
2 to 16 µg/mL

---

Test system: AABA1060 (clinical isolate of Acinetobacter baumannii)
Assay: MIC broth microdilution, AABA1060
Assay type: cell-based
Conditions: Acinetobacter baumannii, read-out: MIC AABA1060
The following compounds are shown together with reported MIC values.

Reference set (8 entries):
>>> readout_value("C[C@@H](N)[C@H](NC(=O)c1ccc(C#CC#Cc2cncnc2)cc1)C(=O)NO")
"16 to 64 µg/mL"
>>> readout_value("O=C(N[C@H](C(=O)NO)c1ccsc1)c1ccc(C#Cc2ccc(CN3CCOCC3)cc2)cc1")
"2 to 16 µg/mL"
>>> readout_value("CC(C)(O)[C@H](NC(=O)c1ccc(C#CC#Cc2ccc(N)cc2)cc1)C(=O)NO")
"< 2 µg/mL"
>>> readout_value("COC(=O)[C@@H](NC(=O)c1ccc(C#C/C(F)=C/c2ccc(CN3CCOCC3)cc2)cc1)[C@@H](C)O")
"2 to 16 µg/mL"
>>> readout_value("C[C@@H](N)[C@H](NC(=O)c1ccc(C#Cc2ccc(CNS(C)(=O)=O)cc2)cc1)C(=O)NO")
"16 to 64 µg/mL"
>>> readout_value("CC(C)/C=C/C#Cc1ccc(C(=O)N[C@H](C(=O)NO)[C@@H](C)N)cc1")
"< 2 µg/mL"
>>> readout_value("NC[C@H](NC(=O)c1ccc(/C=C/C#Cc2ccc(CNC3CC3)cc2)cc1)C(=O)NO")
"16 to 64 µg/mL"
>>> readout_value("C[C@@H](N)[C@H](NC(=O)c1ccc(C#C/C=C/c2ccncc2)cc1)C(=O)NO")
"16 to 64 µg/mL"

For `C[C@@H](N)[C@H](NC(=O)c1ccc(C#C/C=C/c2ccc(CN3CCOCC3)cc2)cc1)C(=O)NO` , what is its reported MIC?
2 to 16 µg/mL

For `CC(C)(N)[C@H](NC(=O)c1ccc(C#CC#CC2CC2)cc1)C(=O)NO` , what is its reported MIC?
< 2 µg/mL

For C[C@@H](O)[C@H](NC(=O)c1ccc(/C=C/C#Cc2ccc(CN3CCOCC3)cc2)cc1)C(=O)NO [Example 30-12a] , what is its reported MIC?
2 to 16 µg/mL

For `CC(C)(N)[C@H](NC(=O)c1ccc(C#Cc2ccc(CNCCF)cc2)cc1)C(=O)NO` , what is its reported MIC?
2 to 16 µg/mL
